target.or.system: BoNT/A light chain (LCA) (Clostridium botulinum type A, UniProt P0DPI1 2-448)
Sequence (P0DPI1 2-448): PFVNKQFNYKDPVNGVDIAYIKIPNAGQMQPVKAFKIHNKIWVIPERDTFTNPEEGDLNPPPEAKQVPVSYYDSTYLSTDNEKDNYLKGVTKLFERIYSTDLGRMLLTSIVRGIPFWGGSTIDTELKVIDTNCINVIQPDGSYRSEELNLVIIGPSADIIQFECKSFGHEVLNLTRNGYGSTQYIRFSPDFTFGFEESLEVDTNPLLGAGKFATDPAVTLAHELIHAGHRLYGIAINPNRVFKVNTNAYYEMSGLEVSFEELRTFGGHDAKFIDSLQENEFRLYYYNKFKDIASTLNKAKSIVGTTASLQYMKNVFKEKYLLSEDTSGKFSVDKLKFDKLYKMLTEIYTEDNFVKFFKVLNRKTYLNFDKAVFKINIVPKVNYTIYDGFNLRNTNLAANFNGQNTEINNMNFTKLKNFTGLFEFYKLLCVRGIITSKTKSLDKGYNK
method: SPR
measure: pKd
Please keep in mind that pKd is minus log10 of the molar concentration; only the number is needed.

Past entries and their recorded results:
binder	pKd
TW1 2'-F modified (XNA, 2'-fluoro pyrimidines (C and U)) RNA: GGGUACCCACUCAGGUACGAUUGGUGCGAUAAACUAGACUCGUCAUGCGCAGUCUCCUACAGCUUUCUAGAAUUAAGCUUAGGC	7.50
TW3 unmodified (structured_RNA) RNA: GGGUACCCACUCAGGUACGUGGGAAUUGAGCGGGUCACACUAUAAGCACGAGCCUUAGACAGCUUUCUAGAAUUAAGCUUAGGC	7.23
TW3 2'-F modified (XNA, 2'-fluoro pyrimidines (C and U)) RNA: GGGUACCCACUCAGGUACGUGGGAAUUGAGCGGGUCACACUAUAAGCACGAGCCUUAGACAGCUUUCUAGAAUUAAGCUUAGGC	7.55

// sample TW1 unmodified (structured_RNA) RNA: GGGUACCCACUCAGGUACGAUUGGUGCGAUAAACUAGACUCGUCAUGCGCAGUCUCCUACAGCUUUCUAGAAUUAAGCUUAGGC , its pKd was 6.96
